# Tested on: NCI/ADR-RES ovarian
# experiment: NCI tumour cell line growth inhibition, 48 h
Assign TGI to each entry below.

Use these answered entries as a reference point.
Oc1c(C(O)(c2ccccc2)c2ccc3ccccc3c2O)ccc2ccccc12 = 43.1 µM
COc1cccc(Nc2nc(NNC(=O)Cc3ccccc3)nc(NNC(=O)c3ccncc3)n2)c1 = > 100 µM

Please go through the list and note TGI for each compound.
1. Cc1cccc2c1Oc1cc(Cl)ccc1C2NC(=O)CCN1CCCCC1 (stereo not given)
2. COCCO
3. CCOC(=O)C(SCCO)C(C(=O)OCC)n1ccc(N)nc1=O (stereo not given)
4. N#CC12COC3(CCCCC3C1(C#N)C#N)OC2=N (stereo not given)
5. C=C1C(=O)OC2/C=C(\C)CC/C=C(/C)CC(OC(=O)/C(=C/CO)CO)C12 (stereo not given)

1. 32 µM
2. > 100 µM
3. > 100 µM
4. > 100 µM
5. > 100 µM

Record TGI for all entries; do not skip any.
1. CN1CCc2c(sc3nc(Nc4ccccc4)n(N)c(=O)c23)C1
2. COc1cc(CNC(=O)/C=C/C=C/c2ccc3c(c2)OCO3)ccc1OCc1cn(-c2ccc(Cl)c(Cl)c2)nn1
3. Nc1nc(N)c2cc(CNc3ccc(Cl)c(Cl)c3)ccc2n1
4. O=C(N/N=C(/COc1cccc(Cl)c1)N=Cc1ccncc1)c1ccncc1
5. O=C(Nc1ccc(Cl)cc1)c1cc(S(=O)(=O)Nc2n[nH]c(=O)[nH]2)c(SSc2cc(Cl)c(C(=O)Nc3ccc(Cl)cc3)cc2S(=O)(=O)Nc2n[nH]c(=O)[nH]2)cc1Cl
6. COC(=O)N1CC[C@@H]2CCC=C(c3cccc4c3OCO4)[C@@H]21

["> 100 µM", "4.93 µM", "3.25 µM", "> 100 µM", "> 100 µM", "> 100 µM"]

* * *

# System: LOX IMVI melanoma
# experiment: NCI tumour cell line growth inhibition, 48 h
endpoint-label: TGI

COCCO = > 100 µM

Each compound below has a reported value. Please supply its TGI.
1. CCc1cccc(C(C)CC)c1N=C(NC(=O)c1ccccc1C(=O)NC(=Nc1c(CC)cccc1C(C)CC)SC)SC (stereo unspecified)
2. COc1cc2c(cc1OC)C(CCc1ccc(Cl)cc1)N(C)CC2 (stereo unspecified)
3. C/C(Cl)=N\OC(=O)Nc1ccc([N+](=O)[O-])cc1
4. CCOC(=O)/C(C(=S)NC)=C(/N)N1CCCC1
5. CCN(CC)CCN1c2ccccc2Sc2ccc3ccccc3c21
6. NS(=O)(=O)c1nnc(NC(=O)CCC(=O)O)s1
7. O=[N+]([O-])c1cc2n[nH]nc2c2nonc12

1. > 100 µM
2. 30.8 µM
3. 9.93 µM
4. > 100 µM
5. 21.4 µM
6. > 100 µM
7. > 100 µM

Hi there! I need TGI for each item below, if you can.
1. Clc1cc2nc(C3CCCO3)[nH]c2cc1Cl (stereo unspecified)
2. CN(c1c(Cl)cccc1Cl)S(=O)(=O)c1ccccc1[N+](=O)[O-]
3. O=C(Nc1cccc(Cl)c1)Nc1cccc(Cl)c1

> 100 µM
> 100 µM
> 100 µM

Would you mind listing TGI for each of the following compounds?
1. Oc1c(C(O)(c2ccccc2)c2ccc3ccccc3c2O)ccc2ccccc12
2. COc1cc(N=C(N)N=C(N)N)c2ncccc2c1
3. CC(/C=C/c1ncccc1OCCCCCC(=O)O)=N\NC1=NCCN1
4. COC(=O)C12CCC(C(=O)OC)(Cc3c(c4ccccc4n3S(=O)(=O)c3ccccc3)C1)C2=O (stereo unspecified)
5. CS(C)(=O)=N/C=C\C(=O)C(Cl)(Cl)Cl

1: 31.3 µM; 2: > 100 µM; 3: > 100 µM; 4: > 100 µM; 5: > 100 µM

src = PubChem BioAssay (NCI)
